Molecular target: DNA dC->dU-editing enzyme APOBEC-3G (Homo sapiens)
Assay: qHTS for inhibitors of Vif-A3G interactions: Validation (AID 588379); note: 0% is about no effect
Conditions: Vif-A3G protein interaction assay; series mostly up to 46.1 µM
Experimental: The recent discovery and characterization of host restriction factors, which provide a potent defense to invading retroviruses, has provided new targets for antiviral drug development. […] 5 uL of 700 cells/well of A3G-YFP cells are dispensed into black, clear bottom plates. […] The plates are incubated overnight at 37 deg C and then read on the TTP Acumen (Ex 488/ Em 500-530).
Active and inactive are the calls of the source. Calls come from the whole dose curve; as a rule, active = well fitted inhibition curve with a large enough effect; inconclusive = small, poorly fitted or top-dose-only effect; inactive = flat fitted curve, though single readings scatter.
measured parameter: outcome

Worked examples follow.
CN1CCc2cc3c(cc2C(=O)Cc2ccc4c(c2C1)OCO4)OCO3 : inactive
COc1cc2c(c(OC)c1OC)-c1ccc(OC)c(=O)cc1[C@H](NC(C)=O)CC2 : inactive
COc1cc([C@@H]2Oc3cc([C@H]4Oc5cc(O)cc(O)c5C(=O)[C@H]4O)ccc3O[C@H]2CO)ccc1O : inactive
COC1=CC(=O)CC(C)C12Oc1c(Cl)c(OC)cc(OC)c1C2=O (stereo unspecified) : inactive
O=c1cc(-c2ccccc2O)oc2ccc3ccccc3c12 : inactive

Recorded result, C[C@@](Cc1ccccc1)(NC(=O)CN)c1ccccc1 , outcome: inactive

// outcome lookup, molecule = COc1cccc2oc(-c3ccc(O)cc3)cc(=O)c12 , result: inactive

----------
test system: N140; experiment: qHTS profiling for inhibitors of Plasmodium falciparum proliferation (AID 504749); note: nearly all actives have a fitted effect of over 60% in size; details: P. falciparum in erythrocytes, SYBR Green DNA, 72 h; series mostly up to 28.7 µM
Records with an inconclusive call do not appear. Active and inactive are the calls of the source. The call rests on the fitted dose curve; in most records, active means well fitted inhibition curve with a large enough effect; inconclusive means small, poorly fitted or top-dose-only effect; inactive means flat fitted curve, though single readings scatter.
Please answer using one outcome listed in t (active), f (inactive)

Known results for molecules:
CO[C@H]1/C=C/O[C@@]2(C)Oc3c(C)c(O)c4c(O)c(c5c(c4c3C2=O)NC2(CCN(CC(C)C)CC2)N=5)=NC(=O)/C(C)=C\C=C\[C@H](C)[C@H](O)[C@@H](C)[C@@H](O)[C@@H](C)[C@H](OC(C)=O)[C@@H]1C : t
CCC1OC(=O)C[C@H](O)C(C)[C@@H](O[C@@H]2OC(C)C(O)C(N(C)C)C2O)C(CCN2CC(C)CC(C)C2)CC(C)C(=O)/C=C/C(C)=C\[C@@H]1COC1OC(C)C(O)C(OC)C1OC (some centres not stated) : t
Cc1cnc(NC(=O)C2C(=O)c3ccccc3S(=O)(=O)N2C)s1 (configuration not stated) : f
CN[C@H](C)CCC=C(C)C : t

What was the test verdict on NC(=O)OC[C@@H]1[C@H](NC(=O)/C(=N/OCC(=O)O)c2csc(N)n2)C(=O)N1S(=O)(=O)O ? f

How did this test come out for Nc1nc(/C(=C/CC(=O)O)C(=O)NC2C(=O)N3C(C(=O)O)=CCSC23)cs1 (configuration not stated) ? f

Any idea what this test logged for CC1(C)O[C@@H]2C[C@H]3[C@@H]4CCC5=CC(=O)C=C[C@]5(C)[C@H]4C(O)C[C@]3(C)[C@]2(C(=O)CO)O1 (some centres not stated) ? t

----------
The following compounds are listed with their measured activity, negative = inhibition values.
assay: Stat Signaling Pathway (AID 446); conditions: ME-180 (cervical carcinoma) SIE beta-lactamase reporter, IL-6 stimulated, 5 h; at 17.2 µM (top of the series) unless noted;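 note: ME-180 cervical cancer cells given 40 pM IL-6 alongside compound; SIE-controlled beta-lactamase reporter measured as 460/530 nm FRET emission ratio; % is set by controls: 0 for no effect and ±100 for the full control effect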
Records with an inconclusive call do not appear. The source made the active and inactive calls. Calls follow the shape of the dose curve; as a rule, active = well fitted curve in either direction with a large enough effect (not every such curve was filed as active); inconclusive = small, poorly fitted or top-dose-only effect, or another doubt; inactive = flat fitted curve, though single readings scatter.

Consider the following illustrative entries.
O=C(NCCO)C1(c2ccccc2)CCCC1 : 2.26% (inactive)
O=C1CC(c2ccco2)CC(O)=C1C=Nc1cc(Cl)ccc1O (configuration not stated) : -10.9% (inactive)
CC(=O)O[C@H]1C(=O)[C@]2(C)[C@H]([C@H](OC(=O)c3ccccc3)[C@]3(O)C[C@H](OC(=O)[C@H](O)[C@@H](NC(=O)c4ccccc4)c4ccccc4)C(C)=C1C3(C)C)[C@]1(OC(C)=O)CO[C@@H]1C[C@@H]2O : -2.52% (inactive)
Cc1nn(C)cc1C1C2=C(CC(C)(C)CC2=O)OC2=C1C(=O)CC(C)(C)C2 : 4.21% (inactive)
Cc1ccc(-c2ccc(/C=N/c3ncn[nH]3)o2)cc1Cl : -7.79% (inactive)

Value of activity, negative = inhibition reported for the compound Nc1nnnn1/N=C/c1cccs1 is 2.51% (inactive)

Lookup result for N#CCCN(C(=O)c1ccco1)c1ccccc1 ; measured activity, negative = inhibition: 9.28% (inactive)

Notebook: CCOC(=O)Oc1ccc2c(c1)C(C)=CC(C)(C)N2C(=O)OCC , activity, negative = inhibition read as 4.48% (inactive)

compound CCN(CC)Cc1c(O)ccc2c(C)c(CC(=O)OC)c(=O)oc12 , activity, negative = inhibition observed: 8.46% (inactive)

Looking up N#CC1=C(N)N(c2ccccc2)C(c2ccccc2)C1(C#N)C#N (configuration not stated) , I see its activity, negative = inhibition listed as -18.6% (inactive)

----------
tested on: DFO2036; experiment: qHTS profiling for inhibitors of Plasmodium falciparum proliferation (AID 504749); note: nearly all actives have a fitted effect of over 60% in size; note: potency is the fitted concentration of half-maximal effect; conditions: P. falciparum in erythrocytes, SYBR Green DNA, 72 h; series mostly up to 28.7 µM
Records with an inconclusive call do not appear. The source made the active and inactive calls. Calls come from the whole dose curve; as a rule, active = well fitted inhibition curve with a large enough effect; inconclusive = small, poorly fitted or top-dose-only effect; inactive = flat fitted curve, though single readings scatter.
measured parameter: Potency

CC1(C)C2CC[C@]1(C)[C@@H](O)C2 : inactive
C[C@@H]1CC2C3CCC4=CC(=O)C=C[C@]4(C)[C@@]3(F)[C@@H](O)C[C@]2(C)[C@@]1(O)C(=O)COC(=O)c1cccc(S(=O)(=O)O)c1 (stereo partly drawn) : inactive
OCC1OC(O)C(O)C(O)C1O (stereo not drawn) : inactive
CC(=O)OCC(=O)[C@@]1(O)CCC2C3CCC4=CC(=O)C=CC4(C)C3C(O)C[C@]21C (stereo partly drawn) : inactive
CC1(Cn2ccnn2)[C@H](C(=O)O)N2C(=O)C[C@H]2S1(=O)=O (stereo partly drawn) : inactive
C[C@H](CN1c2ccccc2Sc2cccnc21)N(C)C : 11.2 µM (active)
C[n+]1c2cc(N)ccc2cc2ccc(N)cc21 : 0.355 µM (active)
CCCCC(=O)OC1CCC2C3CCc4cc(O)ccc4C3CC[C@]12C (stereo partly drawn) : inactive
CCC(=O)O[C@]1(C(=O)CCl)[C@@H](C)CC2C3C[C@H](F)C4=CC(=O)C=CC4(C)[C@@]3(F)C(O)CC21C (stereo partly drawn) : 11.2 µM (active)
Cc1cnc(NC(=O)C2C(=O)c3ccccc3S(=O)(=O)N2C)s1 (stereo not drawn) : inactive

Would you kindly look at the next entry?
According to the records, this molecule OC[C@@H](O)C(O[C@@H]1O[C@@H](CO)[C@H](O)[C@H](O)[C@H]1O)[C@H](O)[C@@H](O)CO (stereo partly drawn) displays Potency of inactive

----------
assay: qHTS profiling for inhibitors of Plasmodium falciparum proliferation (AID 504749); note: nearly all actives have a fitted effect of over 60% in size;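 for activity, negative = inhibition: 0% = DMSO vehicle and full inhibition = artemisinin control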; conditions: P. falciparum in erythrocytes, SYBR Green DNA, 72 h; at 28.7 µM (top of the series); parasite line B
Inconclusive results are not listed.
measured parameter: activity, negative = inhibition (%)
Express the result in % but write the number alone.

Solved entries (count: 3):
CC(=O)N1CC(O)CC1C(=O)O (stereo not given) : -6.82
C[C@]12CC[C@@H]3c4ccc(O)cc4CC[C@H]3[C@@H]1C[C@H](O)C2O (stereo not given in full) : 12.7
CC1CN(c2c(F)c(N)c3c(=O)c(C(=O)O)cn(C4CC4)c3c2F)CC(C)N1 (stereo not given) : 11

# activity, negative = inhibition (compound: C=C(CC[C@@H](C)[C@H]1CCC2[C@]1(C)CC[C@]13C[C@@]14CCC(OC(=O)/C=C/c1ccc(O)c(OC)c1)C(C)(C)[C@@H]4CC[C@@]23C)C(C)C (stereo not given in full) ) is 1.72

The reported activity, negative = inhibition of the compound CO/N=C(/C(=O)N[C@@H]1C(=O)N2C(C(=O)O)=C(C[n+]3ccc(N)n3CCO)CS[C@H]12)c1csc(N)n1 was 9.51

compound Nc1nc(F)nc2c1ncn2[C@@H]1O[C@H](CO)[C@@H](O)[C@H]1O , activity, negative = inhibition observed: 14.2

Form field activity, negative = inhibition, entry NC(CSSCC(N)C(=O)O)C(=O)O (stereo not given) : 19

Entry under test: CO/N=C(/C(=O)N[C@@H]1C(=O)N2C(C(=O)O)=C(CSc3cnns3)CS[C@H]12)c1csc(N)n1 . Its activity, negative = inhibition was 11.8

# activity, negative = inhibition of CC(C)(C)C(=O)OCC(=O)C1CCC2C3CCC4=CC(=O)CCC4(C)C3CCC12C (stereo not given) = 11.2

In plain terms, CCC(C)C(N)C(=O)O (stereo not given) has a documented activity, negative = inhibition of -1.6

Per the records, this compound ( CC(=O)OCC(=O)[C@@]1(O)CCC2C3C[C@H](C)C4=CC(=O)C=CC4(C)C3C(O)CC21C (stereo not given in full) ) has activity, negative = inhibition equal to 4.17

So, C=CCN1CC(C(=O)N(CCCN(C)C)C(=O)NCC)CC2c3cccc4[nH]cc(c34)CC21 (stereo not given) ? Its activity, negative = inhibition was -28.9

activity, negative = inhibition measured on NC(=O)c1ncn(C2OC(CO)C(O)C2O)c1N (stereo not given) = 6.51

Per the records, this compound ( CCOC(=O)C(CCc1ccccc1)NC(C)C(=O)N1Cc2cc(OC)c(OC)cc2CC1C(=O)O (stereo not given) ) has activity, negative = inhibition equal to -28.7

So, CNC1CCc2cc(OC)c(OC)c(OC)c2-c2ccc(OC)c(=O)cc21 (stereo not given) ? Its activity, negative = inhibition was 0.292

Reported activity, negative = inhibition for C[C@@H]1C(SC2Cn3cnc[n+]3C2)=C(C(=O)[O-])N2C(=O)[C@H]([C@@H](C)O)[C@@H]12 (stereo not given in full) was 11.1

Per the record, CC12C=CC(=O)C=C1[C@@H](F)CC1C2C(O)CC2(C)C1CC[C@]2(O)C(=O)CO (stereo not given in full) has activity, negative = inhibition of 5.63

Lab book: activity, negative = inhibition of CC(C)(C)NC[C@H](O)CSc1nc(-c2ccc(C(N)=O)s2)cs1 noted as -3.22

activity, negative = inhibition in this record for CCN(CC)CC(=O)Nc1c(C)cc(C)cc1C : 6.57

Query Cc1cc2nc3c(=O)[nH]c(=O)nc-3n(CC(O)C(O)C(O)COP(=O)(O)O)c2cc1C (stereo not given) yields activity, negative = inhibition of 1.68
